- assay-comment: Human HepG2 cell viability assay in 384 well format
- Assay type: toxicity, cell-based
- Set-up: dose 125 nL, time 70.5 hour; concentration not given beside the values
- assay-conditions: HepG2 cells, read-out: Inhibition
// NB: equality with 10% counts as NOT MET; only cytotoxicity at 70.5 h strictly below is MET

Enquiry: Dear reviewer, please state whether CC(C)C(NC(=O)NCC1CC1)c1nnc2n1CCC2 (configuration not stated) has cytotoxicity at 70.5 h strictly beneath 10%.
Return: MET

Enquiry: Please check: cytotoxicity at 70.5 h for Fc1ccc(-c2cc(NCCC3CCOC3)n3nccc3n2)cc1 (configuration not stated) , strictly under 10% or not?
Return: MET

Enquiry: Just wondering, is cytotoxicity at 70.5 h of NC(=O)C(NCc1nn(-c2ccccc2)c2c1CCC2)c1ccccc1 (configuration not stated) below 10%?
Return: MET

Enquiry: Dear reviewer, please state whether "COc1ccc2[nH]cc(C(=O)N3C[C@@H](O)[C@H](N4CCCC4)C3)c2c1" has cytotoxicity at 70.5 h strictly beneath 10%.
Return: NOT MET

Enquiry: Say whether its cytotoxicity at 70.5 h is strictly beneath 10%. Entry: CCN1C(=O)CC(c2cnn(C)c2)C12CCN(C(=O)c1ccc[nH]1)CC2 (configuration not stated)
Return: MET

More entries:
Enquiry: State whether 10% exceeds cytotoxicity at 70.5 h recorded for CSC(CNS(C)(=O)=O)c1cccc(Cl)c1 (configuration not stated) .
Return: NOT MET

Enquiry: Consider CC(C)N1CCOCC2(CN(Cc3ccccn3)CCO2)C1 (configuration not stated) . Does its cytotoxicity at 70.5 h lie strictly below 10%?
Return: MET

Enquiry: hey, is cytotoxicity at 70.5 h for COC(=O)CC(NC(=O)c1cccc(N2CCCC2=O)c1)c1cccs1 (configuration not stated) lower than 10% or not?
Return: MET

Enquiry: Please determine if "O=C(c1ccc(-n2cnnc2)cc1)N1CCC(Nc2cccnn2)CC1" is below 10% in terms of cytotoxicity at 70.5 h.
Return: MET

Enquiry: Quick check: cytotoxicity at 70.5 h of "CC(C)(C)Cc1noc2ncc(C(=O)N3CCSCC3)cc12" under 10%?
Return: MET

Enquiry: Hello, I'm reviewing records and need to know if cytotoxicity at 70.5 h of "CCc1ccc(OCCn2cccn2)cc1" is below 10%. Could you check?
Return: NOT MET

src = ChEMBL document CHEMBL3507680
